// merged dataset of pIC50 values, system = Squalene synthase (Homo sapiens), multiple refs
Sequence (P37268 whole entry): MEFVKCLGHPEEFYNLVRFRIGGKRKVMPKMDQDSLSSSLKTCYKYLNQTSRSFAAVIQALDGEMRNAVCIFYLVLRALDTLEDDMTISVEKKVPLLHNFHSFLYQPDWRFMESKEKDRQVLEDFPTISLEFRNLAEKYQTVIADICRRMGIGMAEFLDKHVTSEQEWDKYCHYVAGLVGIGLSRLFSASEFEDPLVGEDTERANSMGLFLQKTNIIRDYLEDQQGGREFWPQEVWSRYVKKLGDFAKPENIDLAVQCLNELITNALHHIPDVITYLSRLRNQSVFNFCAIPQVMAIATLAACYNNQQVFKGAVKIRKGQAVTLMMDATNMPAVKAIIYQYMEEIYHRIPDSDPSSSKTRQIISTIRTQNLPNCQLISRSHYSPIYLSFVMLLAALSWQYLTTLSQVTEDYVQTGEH
In plain terms, pIC50 is the concentration in mol/L turned into minus its base-10 logarithm.

For the molecule `C[C@@H](NC(=O)C[C@H](CC(=O)O)C(=O)O)[C@@H](Cc1ccc(Cl)c(Cl)c1)c1ccc(-c2ccccc2)c(F)c1` , what pIC50 is on record?
7.72

For the molecule CC(C)C[C@H]1C(=O)N(CC(=O)O)C[C@H](c2ccccc2)c2cc(Cl)ccc21 (racemic) , what pIC50 is on record?
4.82

For the molecule CCCN(C(=O)CCC(=O)N1CCC(C(=O)OCC)CC1)c1ccc(Cl)cc1C(O)c1ccccc1Cl (stereo unspecified) , what pIC50 is on record?
6.22

For the molecule CC(C)C[C@H]1C(=O)N(CC(=O)NCCCCCC(=O)O)C[C@H](c2ccccc2Cl)c2cc(Cl)ccc21 (racemic) , what pIC50 is on record?
5.62

For the molecule CCOC(=O)C1CCN(C(=O)CCC(=O)N(CC(C)(C)C)c2ccc(Cl)cc2C(O)c2ccccc2F)CC1 (stereo unspecified) , what pIC50 is on record?
9.35

For the molecule COc1ccccc1[C@H]1CN(CC(=O)N2CCC(C(=O)O)CC2)C(=O)[C@H](CC(C)C)c2ccc(Cl)cc21 (racemic) , what pIC50 is on record?
6.30

For the molecule CC(C)(C)CN(C(=O)CCC(=O)N1CCCC(C(=O)O)C1)c1ccc(Cl)cc1C(O)c1cccc(F)c1Cl (stereo unspecified) , what pIC50 is on record?
8.08

For the molecule C[C@H](NC(=O)CC(CC(=O)O)C(=O)O)[C@@H](Cc1ccc(Cl)c(Cl)c1)c1ccc(-c2ccccc2)c(F)c1 (single isomer, unassigned) , what pIC50 is on record?
9.14

For the molecule `CC(C)=CCC/C(C)=C/CC/C(C)=C/CC(P(=O)(O)O)P(=O)(O)O` , what pIC50 is on record?
7.74

For the molecule CC(C)C[C@H]1C(=O)N(CC(=O)O)C[C@H](c2ccccc2Br)c2cc(Cl)ccc21 (racemic) , what pIC50 is on record?
5.66

For the molecule CCOC(=O)C1CCN(C(=O)CCC(=O)N(CC(C)(C)C)c2ccc(Cl)cc2C(O)c2cccc(OC)c2OC)CC1 (stereo unspecified) , what pIC50 is on record?
8.96

For the molecule COc1ccccc1C(O)c1cc(Cl)ccc1N(CC(C)(C)C)C(=O)CCC(=O)N1CCC(C(=O)O)CC1 (stereo unspecified) , what pIC50 is on record?
8.77

For the molecule CC(C)=CCC/C(C)=C/CC/C(C)=C/CC1P(=O)(O)CP(=O)(O)OP1(=O)O (stereo unspecified) , what pIC50 is on record?
4.33

For the molecule CCOC(=O)CN1CCN(C(=O)CCC(=O)N(CC(C)(C)C)c2ccc(Cl)cc2C(O)c2ccccc2Cl)CC1 (stereo unspecified) , what pIC50 is on record?
8.10
